- Test system: HCT-15 colon
- methodNotes: NCI tumour cell line growth inhibition, 48 h
quantityName: TGI

Known results for compounds:
# compound, TGI
measured = [
    ("CCN(CC)/[N+]([O-])=N/OS(=O)(=O)N(C)C", "> 100 µM"),
    ("CC1=C(C(=O)Nc2ccc3[nH]ncc3c2)C(c2ccc(F)cc2)N=C(c2ccc(C(F)(F)F)nc2)N1 (stereo unspecified)", "> 25 µM"),
    ("CN(c1ccccc1)c1c2ccccc2nc2[nH]c3ccccc3c12", "> 31.9 µM"),
    ("Cc1cn([C@H]2C[C@@H](N3C(=O)c4ccccc4C3=O)[C@@H](CO[Si](C)(C)C(C)(C)C)O2)c(=O)[nH]c1=O", "> 100 µM"),
    ("CS(=O)(=O)CCC1CCC(=O)O1 (stereo unspecified)", "> 100 µM"),
]

Lookup: So what's the measured TGI for this one? `CN(CC(=O)Nc1ccccc1C(=O)O)c1ccccc1`
Found: > 100 µM

====

- Tested on: NCI-H226 lung
- methodNotes: NCI tumour cell line growth inhibition, 48 h; in the data active = GI50 below about 0.43 µM; inactive = the rest
Your answer must be one of the following: 1 (yes) for active, 0 (no) for inactive

# compound, assignedCategory
data = [
    ("Cc1cccc(Oc2ccc(Nc3ncnc4ccc(NC(=O)CN(C)C)cc34)cc2Cl)c1", "0 (no)"),
    ("COc1ccc([C@@H]2[C@@H](Oc3ccccc3)C(=O)N2c2cc(OC)c(OC)c(OC)c2)cc1F", "0 (no)"),
    ("Nc1cc(C(F)(F)F)c(-c2nc(N3CCOCC3)nc(N3CCOCC3)n2)cn1", "1 (yes)"),
    ("COc1cc2c3c(n(CCCN)c(=O)c2cc1OC)-c1ccc(N)cc1C3=O", "0 (no)"),
    ("OCc1ccc(N2CCc3ccc(F)cc3C2)cc1Cl", "1 (yes)"),
]

Lookup: Call for entry `CN(c1ccccc1)c1c2ccccc2nc2[nH]c3ccccc3c12` :
Found: 0 (no)

Lookup: Test call for this compound, please: `O=c1c(Oc2ccc(F)cc2F)cc2cnc(NC3CCOCC3)nc2n1C1CC1`
Found: 0 (no)

Lookup: Assay outcome for `Cc1ccc(-c2nc([P+](c3ccccc3)(c3ccccc3)c3ccccc3)c(N3CCOCC3)o2)cc1` : what was it?
Found: 0 (no)

Lookup: For `C/C(=C\c1csc(C)n1)[C@@H]1C[C@@H]2O[C@]2(C)CCC[C@H](C)[C@H](O)[C@@H](C)C(=O)C(C)(C)[C@@H](O)CC(=O)N1` , which call appears in the assay record?
Found: 1 (yes)

Lookup: Call for entry `Oc1c(Br)cc(Cl)cc1C(c1cc(Cl)cc(Br)c1O)C(Cl)(Cl)Cl` :
Found: 0 (no)

Lookup: Tell me the recorded outcome of this test for O=S(=O)(Nc1ccccc1)c1ccc(C2CC3(Cl)C(Cl)=C(Cl)C2(Cl)C3(Cl)Cl)cc1 (stereo unspecified) .
Found: 0 (no)

====

Measured TGI by item
- Tested on: U251 CNS
- methodNotes: NCI tumour cell line growth inhibition, 48 h

For orientation, consider the following solved cases.
# molecule, TGI
data = [
    ("O=c1[nH]c2ccccc2c2oc3ccccc3c12", "> 100 µM"),
    ("O=C1NC(=NCc2cccs2)O/C1=C\\c1ccc2ncccc2c1", "> 18.8 µM"),
]

Next item in the queue.
Lookup: Endpoint output: TGI of CS(=O)(=O)CCC1CCC(=O)O1 (stereo not drawn) . Value?
Found: > 100 µM

====

- Test system: SF-295 CNS
- methodNotes: NCI tumour cell line growth inhibition, 48 h
Quick reference: TGI of the listed items.

Lookup: # value lookup — system SF-295 CNS, readout TGI, item `C=C1CC[C@@H]2[C@](C)(COC(=O)CCC(=O)OC)CCC[C@@]2(C)[C@@H]1CCC1=CC(=O)OC1`
Found: > 100 µM

Lookup: Query TGI on SF-295 CNS for CCOC(=O)C1C(NC(N)=O)N(Cc2ccccc2)C(=O)N1Cc1ccccc1 (centres undefined)
Found: > 100 µM

Lookup: // fetch SF-295 CNS TGI for `CC(C)(CCCCC(C)(C)NC1=NCCO1)NC1=NCCO1`
Found: > 10 µM

Lookup: Could you share what TGI was measured for `NCCCCNOCCCN` , tested on SF-295 CNS?
Found: > 100 µM

Lookup: // fetch SF-295 CNS TGI for `COC(=O)N/N=C(\C)c1sc(-c2nc(C)c(/C(C)=N/NC(=O)OC)s2)nc1C`
Found: > 100 µM

Lookup: Recall the recorded TGI for `COc1ccc(Cn2c(Br)c3c(c2-c2cc(OC)c(OC)c(OC)c2)CCc2sc(N)nc2-3)cc1` with SF-295 CNS and state it.
Found: 7.57 µM

Lookup: Request - read-out TGI | tested on SF-295 CNS | compound `O=c1oc2ccccc2c(-c2ccc(O)cc2)c1Oc1ccccc1`
Found: 53.6 µM

Lookup: API: value(readout= TGI, system= SF-295 CNS, query= `COc1cc2c3c(n(CCCN)c(=O)c2cc1OC)-c1ccc(N)cc1C3=O` )
Found: 37.3 µM

Lookup: For the record `CC(C)(C)c1ccc(OCCOCCOc2ccc(C(C)(C)C)cc2S(N)(=O)=O)c(S(N)(=O)=O)c1` , what value of TGI is listed for SF-295 CNS?
Found: > 100 µM

Lookup: Value wanted: TGI (SF-295 CNS) of entry O=C1CSC(c2cc3cc(Br)ccc3nc2Cl)N1c1ccc(Cl)cc1 (centres undefined)
Found: 37.6 µM

Lookup: Param readout= TGI; system= SF-295 CNS; entry= COC(=O)c1c(C)cccc1C1CN=NC12Cc1cc(C)c(C)cc1C2=O (centres undefined) ; returns value.
Found: > 100 µM

Lookup: Given the entry `O=C(c1c(F)c(F)c(F)c(F)c1F)n1c(=S)n(C(=O)c2c(F)c(F)c(F)c(F)c2F)c2ccccc21` , what TGI was observed with SF-295 CNS?
Found: > 100 µM

Lookup: Form field: TGI recorded for `Cc1cc(C=O)c2c(=O)c3c(O)ccc(/C=C/C(C)C)c3oc2c1` with SF-295 CNS (enter value)
Found: > 100 µM

Lookup: # returns recorded TGI (system: SF-295 CNS) for `COC(=O)N/N=c1\cc(C(=O)Nc2ccc(C)c(C)c2)oc2cc(O)ccc12`
Found: > 100 µM

Lookup: Request body: readout TGI, system SF-295 CNS, query `O=S1(=O)C(=C(c2ccccc2)c2ccccc2)S(=O)(=O)c2ccccc21` . Return the value.
Found: > 66.4 µM

Lookup: Give SF-295 CNS TGI for `CC1(C)CC(=O)C(C(=O)Nc2cccs2)=C(O)C1`
Found: > 100 µM

Lookup: # query: TGI | item `O=c1c(-c2ccccc2)c(SCCCN2CCCCC2)n(-c2ccccc2)c(=S)n1-c1ccccc1` | system: SF-295 CNS
Found: 32.1 µM

Lookup: Query the reported TGI for SF-295 CNS; item: CC1OC(OC2C(OC(=O)[C@]34CCC(C)(C)C[C@H]3C3=CC[C@@H]5[C@@]6(C)CC[C@H](OC7OC(CO)C(O)C(O)C7OC7OC(CO)C(O)C(O)C7O)C(C)(C)[C@@H]6CC[C@@]5(C)[C@]3(C)CC4)OCC(O)C2O)C(O)C(O)C1OC1OCC(O)C(O)C1O (some centres undefined)
Found: 25.7 µM

Lookup: TGI / SF-295 CNS / `CC(=O)O[C@H]([C@H](OC(C)=O)[C@H](C)OC(C)=O)[C@@H](/C=C/[C@H]1CC=CC(=O)O1)OC(C)=O`
Found: 59.8 µM

Lookup: GET /values?readout=TGI&system=SF-295 CNS&item= `CCOC(=O)c1nc2ccc(C(F)(F)F)cc2nc1Oc1ccc(OC)cc1`
Found: > 100 µM

====

- System: SNB-75 CNS
- methodNotes: NCI tumour cell line growth inhibition, 48 h
quantityName: TGI

# molecule, quantityName, assayResult
records = [
    ("CN(/N=C/c1ccccn1)C1=NCCN1", "TGI", "> 100 µM"),
    ("CCOc1ccc(NC(=O)C(=O)C(/C(=N/N)C(=O)OC)c2nc3ccc([N+](=O)[O-])cc3[nH]c2=O)cc1 (centres undefined)", "TGI", "> 100 µM"),
    ("O=C1c2ccccc2C2(O)N(c3ccccc3)C(=S)N(c3ccccc3)C12O (centres undefined)", "TGI", "> 100 µM"),
]

Here is another molecule to look at.
Lookup: # query: TGI of entry `Cc1[nH]c(=O)c2oc3cc4ccccc4cc3c2c1C(=O)O`
Found: > 10 µM

====

- Tested on: HS 578T breast
- methodNotes: NCI tumour cell line growth inhibition, 48 h
Label true (1) when TGI is at or above 50 µM; anything below gets false (0).

# compound, assignedCategory
rows = [
    ("CC[C@]12C=CCN3CC[C@@]4(c5ccc(OC)cc5N(C)[C@H]4[C@@](O)(C(=O)OC)[C@@H]1OC(=O)CCCN1CCN(CCCC(=O)O[C@@H]4[C@]5(CC)C=CCN6CC[C@@]7(c8ccc(OC)cc8N(C)[C@H]7[C@@]4(O)C(=O)OC)[C@@H]65)CC1)[C@@H]32", "false (0)"),
    ("COC(=O)c1sc(=S)sc1SCc1cccc(CSc2sc(=S)sc2C(=O)OC)c1", "true (1)"),
    ("OCc1ccc(N2CCc3ccc(F)cc3C2)cc1Cl", "false (0)"),
    ("COc1cc2c(Oc3ccc(-c4cnc(Nc5ccc(F)cc5)n(C)c4=O)cc3F)ccnc2cc1OCCCN1CCOCC1", "false (0)"),
]

Lookup: Kindly determine if TGI recorded for `NCCCCNOCCCN` is above or exactly 50 µM.
Found: true (1)

Lookup: Check this compound for TGI at or above 50 µM: `COc1cc(CCN)c(OC)c(OC)c1`
Found: true (1)

Lookup: Does TGI meet or surpass 50 µM for `Cc1ccc2c(=O)cc(-c3cc(C)sc3C)[nH]c2n1` ?
Found: false (0)

Lookup: Check this compound for TGI at or above 50 µM: O=C(O)CCC(NC(=O)c1ccc(Nc2nc3ccc(C(F)(F)F)cc3nc2C(=O)O)cc1)C(=O)O (centres undefined)
Found: true (1)

Lookup: Test whether the compound `C(=C\c1cc[n+](CCc2ccccc2)cc1)/c1ccccc1` records TGI of 50 µM or higher.
Found: true (1)

Lookup: Please tell me: is the compound `CC(=O)Nc1nc2c(=O)c3ccccc3sc2s1` at or over 50 µM in terms of TGI?
Found: true (1)

Lookup: Hello, I need to know if `COC(=O)c1ccc(CCC2=CC(=O)C=CC2=O)cc1` has measured TGI not below 50 µM. Thanks!
Found: true (1)

Lookup: Is TGI at least 50 µM? Consider `CC(C)=CCC[C@@H](C)C1=C(N)C(O)=C(C)C(=O)C1=O`
Found: true (1)
